Origin of the recorded values: patent US12540128B2

For each record, write down the corresponding percentage damage caused to the plant, five point scale, SETFA.
system: Setaria faberi (SETFA); test: B2 Post-Emergence Efficacy Test 2; assay type: in vivo; conditions: 250 g/ha, after 13 days

Entry Cc1nn(C)c(=O)c(-c2c(F)ccc(Cl)c2CCc2cccc3ccccc23)c1O [Compound 1.044] ; percentage damage caused to the plant, five point scale, SETFA = 0

Entry Cc1nn(C)c(=O)c(-c2c(F)ccc(Cl)c2CCc2ccc3scnc3c2)c1O [Compound 1.350] ; percentage damage caused to the plant, five point scale, SETFA = 4 (4=60-79%)

Entry Cc1nn(C)c(=O)c(-c2c(F)ccc(Cl)c2CCc2ccc3ccsc3c2)c1O [Compound 1.347] ; percentage damage caused to the plant, five point scale, SETFA = 4 (4=60-79%)

Entry Cc1nn(C)c(=O)c(-c2c(F)ccc(Cl)c2CCc2ccc3ncsc3c2)c1O [Compound 1.349] ; percentage damage caused to the plant, five point scale, SETFA = 4 (4=60-79%)

Entry Cc1nc2ccc(CCc3c(Cl)ccc(F)c3-c3c(O)c(C)nn(C)c3=O)cc2o1 [Compound 1.341] ; percentage damage caused to the plant, five point scale, SETFA = 4 (4=60-79%)

Entry Cc1nn(C)c(=O)c(-c2c(F)ccc(Cl)c2CCc2nc3ccccc3o2)c1O [Compound 1.359] ; percentage damage caused to the plant, five point scale, SETFA = 3 (3=40-59%)

Entry Cc1nn(C)c(=O)c(-c2c(F)ccc(Cl)c2CCc2ccc3c(C)noc3c2)c1O [Compound 1.351] ; percentage damage caused to the plant, five point scale, SETFA = 4 (4=60-79%)

Entry Cc1nn(C)c(=O)c(-c2c(F)ccc(Cl)c2CCc2ccc3c(c2)OC(F)(F)O3)c1O [Compound 1.342] ; percentage damage caused to the plant, five point scale, SETFA = 4 (4=60-79%)

Entry Cc1nn(C)c(=O)c(-c2c(F)ccc(Cl)c2/C=C/c2cn3ccnc3cn2)c1O [Compound 2.363] ; percentage damage caused to the plant, five point scale, SETFA = 0
